The entries below come with measured IC50 values attached.
tested on: Leishmania amazonensis; test: Antileishmanial activity against Leishmania amazonensis MPRO/BR/1972/M1841-LV-79 amastigotes infected in mouse peritoneal macrophages assessed as parasite growth inhibition after 24 hrs by Giemsa staining-based microscopic method; assay type: functional, organism-based; settings: MPRO/BR/1972/M1841-LV-79, 24 h
Field: numeric (µM). Do not append units.

COc1ccc(N/C(=N\C(=O)c2ccccc2)NCc2ccccc2)cc1 :: 21.1
O=C(/N=C(/NCc1ccccc1)Nc1ccc(Br)cc1)c1ccccc1 :: 5.6
O=C(/N=C(/NCc1ccccc1)Nc1ccc([N+](=O)[O-])cc1)c1ccccc1 :: 22.1
N=C(N)c1ccc(OCCCCCOc2ccc(C(=N)N)cc2)cc1 [PENTAMIDINE] :: 5.07

Shifting focus to the molecule that follows.
Entry C[C@@H]1[C@H](O)[C@@H](C)/C=C/C=C/C=C/C=C/C=C/C=C/C=C/[C@H](O[C@@H]2O[C@H](C)[C@@H](O)[C@H](N)[C@@H]2O)C[C@@H]2O[C@](O)(C[C@@H](O)C[C@@H](O)[C@H](O)CC[C@@H](O)C[C@@H](O)CC(=O)O[C@H]1C)C[C@H](O)[C@H]2C(=O)O [AMPHOTERICIN B] has what IC50?
4.92

Cited source for all entries: ChEMBL document CHEMBL4346679
